Biological target: C-Raf FL (Homo sapiens (Human), UniProt P04049, Y340E/Y341E)
Sequence (P04049 whole entry Y340E/Y341E): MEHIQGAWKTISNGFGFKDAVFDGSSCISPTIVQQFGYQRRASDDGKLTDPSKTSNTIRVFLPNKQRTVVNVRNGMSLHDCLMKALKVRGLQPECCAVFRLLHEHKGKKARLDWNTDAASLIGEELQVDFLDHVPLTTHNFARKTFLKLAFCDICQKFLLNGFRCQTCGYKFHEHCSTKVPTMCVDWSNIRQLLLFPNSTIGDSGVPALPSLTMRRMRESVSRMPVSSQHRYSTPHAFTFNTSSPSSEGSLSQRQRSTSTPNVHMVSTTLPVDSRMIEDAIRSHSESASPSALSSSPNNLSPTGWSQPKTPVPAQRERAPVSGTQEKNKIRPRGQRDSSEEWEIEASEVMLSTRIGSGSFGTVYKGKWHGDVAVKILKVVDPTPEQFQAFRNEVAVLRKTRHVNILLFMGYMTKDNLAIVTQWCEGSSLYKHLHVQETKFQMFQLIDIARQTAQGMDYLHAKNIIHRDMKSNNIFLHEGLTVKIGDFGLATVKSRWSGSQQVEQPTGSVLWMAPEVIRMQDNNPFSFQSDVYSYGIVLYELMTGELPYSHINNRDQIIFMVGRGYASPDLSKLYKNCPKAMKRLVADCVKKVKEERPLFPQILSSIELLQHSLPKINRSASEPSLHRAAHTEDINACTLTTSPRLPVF
Sequence (P63104 whole entry partner): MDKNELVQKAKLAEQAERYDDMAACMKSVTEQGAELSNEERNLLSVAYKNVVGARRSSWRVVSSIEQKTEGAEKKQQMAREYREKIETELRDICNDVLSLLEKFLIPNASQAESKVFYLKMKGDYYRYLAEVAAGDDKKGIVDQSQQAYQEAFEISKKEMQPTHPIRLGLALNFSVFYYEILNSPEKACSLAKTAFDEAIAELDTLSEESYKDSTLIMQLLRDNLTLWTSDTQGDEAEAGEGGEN
Experiment: In vitro Raf activity determination (Alpha Screen, phospho-MEK), C-Raf FL (full length, Y340E/Y341E)
Details: ATP 1 μM; 60 min pre-incubation; 1 hour reaction; column head does not say FL or TR
METRIC NAME: IC50 (nM)

Examples with their reported IC50 follow.
COMPOUND: Cc1ccc(NC(=O)c2cc(C(C)(C)C)nc(O)n2)cc1-c1cc(OCCO)nc(C2CCOCC2)c1 [Example 256]
UNITS OF MEASURE: nM
IC50: 0.1
--
COMPOUND: COc1ncc(-c2cc(NC(=O)c3cc(C(C)(C)N)cc(C(F)(F)F)c3)ccc2C)cc1C1(O)COC1 [Example 101]
UNITS OF MEASURE: nM
IC50: 1.45

1. Cc1ccc(NC(=O)c2ccnc(C(F)F)c2)cc1-c1cc(OCCO)nc(C2(CF)COC2)c1 [Example 55]
2. COC1(c2cc(-c3cc(NC(=O)c4ccnc(C(C)(C)F)c4)cnc3C)cnc2OCCO)COC1 [Example 61]
Param metric = IC50; output whichever of 1 , 2 has the minimum value. // caller expects the label of the chosen entry
1

====

Target: C-Raf FL (Homo sapiens (Human), UniProt P04049, Y340E/Y341E)
Assay: In vitro Raf activity determination (Alpha Screen, phospho-MEK), C-Raf FL (full length, Y340E/Y341E)
Details: ATP 1 μM; 60 min pre-incubation; 1 hour reaction; column head does not say FL or TR
METRIC NAME: IC50 (nM)

Examples with their reported IC50 follow.
COMPOUND: Cc1ccc(NC(=O)c2ccnc(Cl)c2)cc1-c1cc(OCCO)nc(C2CCOCC2)c1
TEST TARGET: C-Raf FL (Homo sapiens (Human), UniProt P04049, Y340E/Y341E)
IC50 [nM]: 0.2

COMPOUND: Cc1ccc(NC(=O)c2cccc(C(F)(F)F)c2)cc1-c1cn(C)c(=O)c(C2COC2)n1
TEST TARGET: C-Raf FL (Homo sapiens (Human), UniProt P04049, Y340E/Y341E)
IC50 [nM]: 3

COMPOUND: Cc1ncc(NC(=O)c2cc(C(C)(C)C#N)ccn2)cc1-c1cccc(C2(C)COC2)c1
TEST TARGET: C-Raf FL (Homo sapiens (Human), UniProt P04049, Y340E/Y341E)
IC50 [nM]: 1.97

COMPOUND: Cc1ccc(NC(=O)c2ccnc(C(C)(C)O)c2)cc1-c1cc(C2(C)COC2)c2nccn2n1
TEST TARGET: C-Raf FL (Homo sapiens (Human), UniProt P04049, Y340E/Y341E)
IC50 [nM]: 0.707

COMPOUND: CCOc1nnc(-c2cc(NC(=O)c3ccnc(C(C)(C)F)c3)cnc2C)cc1C1CCOCC1
TEST TARGET: C-Raf FL (Homo sapiens (Human), UniProt P04049, Y340E/Y341E)
IC50 [nM]: 2

COMPOUND: CCOc1ncc(-c2cc(NC(=O)c3cc(C(F)(F)F)cc(C(C)(C)N)n3)ccc2C)cc1C1(O)COC1
TEST TARGET: C-Raf FL (Homo sapiens (Human), UniProt P04049, Y340E/Y341E)
IC50 [nM]: 4.51

COMPOUND: CCOc1ncc(-c2cc(NC(=O)c3cnnc(C(C)(C)C#N)c3)cnc2C)cc1C1(C)COC1
TEST TARGET: C-Raf FL (Homo sapiens (Human), UniProt P04049, Y340E/Y341E)
IC50 [nM]: 1.13

COMPOUND: CCC(F)(F)c1cc(C(=O)Nc2cnc(C)c(-c3cc(NCCO)nc(C4CCOCC4)c3)c2)ccn1
TEST TARGET: C-Raf FL (Homo sapiens (Human), UniProt P04049, Y340E/Y341E)
IC50 [nM]: 0.951

COMPOUND: Cc1ncc(NC(=O)c2ccnc(C(C)(C)C#N)c2)cc1-c1cnc(OC2CCOCC2)c(C2(O)COC2)c1
TEST TARGET: C-Raf FL (Homo sapiens (Human), UniProt P04049, Y340E/Y341E)
IC50 [nM]: 7.63

COMPOUND: Cc1ncc(NC(=O)c2ccnc(C(C)(C)F)c2)cc1-c1cc(OCCO)nc(C2(F)COC2)c1
TEST TARGET: C-Raf FL (Homo sapiens (Human), UniProt P04049, Y340E/Y341E)
IC50 [nM]: 3.29

A. Cc1ccc(NC(=O)c2ccnc(C(F)(F)F)c2)cc1-c1cc(C2CCOCC2)c(N(C)CCO)nn1
B. Cc1ccc(NC(=O)c2ccnc(C(F)(F)F)c2)cc1-c1cc(OCCO)nc(C2(O)CCOCC2)c1
Given A and B , report the one with the higher recorded IC50. // caller expects the label of the chosen entry
A

1. CCC(F)(F)c1cc(C(=O)Nc2ccc(C)c(-c3cc(C4CCOCC4)nc(N4CCC(O)CC4)c3)c2)ccn1
2. Cc1ncc(NC(=O)c2cccc(C(F)(F)F)c2)cc1-c1cc(NCCO)nc(C2CCOCC2)c1
Param metric = IC50; output whichever of 1 , 2 has the minimum value. // caller expects the label of the chosen entry
2
(2: 0.297 nM, 1: 0.621 nM)

1. Cc1ncc(NC(=O)c2cccc(C(F)(F)F)c2)cc1-c1cc(C2(C)COC2)c(OC2CCOCC2)nn1
2. Cc1ccc(NC(=O)c2ccnc(C(C)(C)C#N)c2)cc1-c1cc(OCCO)nc(C2CCOCC2O)c1 (stereo not drawn)
Param metric = IC50; output whichever of 1 , 2 has the minimum value. // caller expects the label of the chosen entry
1
(1: 0.6 nM, 2: 6 nM)

I. COc1ncc(-c2cc(NC(=O)c3ccnc(C(C)(C)O)c3)ccc2C)cc1C1(O)COC1
II. Cc1ncc(NC(=O)c2cccc(C(F)(F)F)c2)cc1-c1cccc(C2(C)COC2)c1
III. COC1(c2cc(-c3cc(NC(=O)c4cccc(C(F)(F)F)c4)cnc3C)cc(NCCO)n2)COC1
IV. Cc1ccc(NC(=O)c2cnnc(C(F)(F)F)c2)cc1-c1cc(OCCO)nc(C2CCOCC2O)c1 (stereo not drawn)
V. Cc1ccc(NC(=O)C2CCNC(C(F)(F)F)C2)cc1-c1cc(C2CCOCC2)nc(N2CCC(C)(N)CC2)c1 (stereo not drawn)
Order the records so the highest IC50 appears first and the lowest last. Answer format: list of labels, ordered as asked.
V, I, IV, II, III

====

Target: C-Raf FL (Homo sapiens (Human), UniProt P04049, Y340E/Y341E)
Assay: In vitro Raf activity determination (Alpha Screen, phospho-MEK), C-Raf FL (full length, Y340E/Y341E)
Details: ATP 1 μM; 60 min pre-incubation; 1 hour reaction; column head does not say FL or TR
METRIC NAME: IC50 (nM)

Examples with their reported IC50 follow.
COMPOUND: COc1ncc(-c2cc(C(=O)Nc3ccnc(C(F)(F)F)c3)ccc2C)cc1C1(O)COC1
IC50, nM: 0.7

COMPOUND: COc1ncc(-c2cc(NC(=O)c3cc(C(F)(F)F)cc(C(C)(C)N)n3)cnc2C)cc1C1(C(F)F)COC1
IC50, nM: 9.2

COMPOUND: Cc1ncc(NC(=O)c2cccc(C(F)(F)F)c2)cc1-c1cc(C2CCOCC2)nc(N2CCC(O)CC2)c1
IC50, nM: 1.99

I. CCOc1ncc(-c2cc(NC(=O)c3ccnc(C(C)(C)F)c3)cnc2C)cc1C1(CO)CCOC1 (stereo not drawn)
II. COc1ncc(-c2cc(NC(=O)c3ccnc(C(C)(C)C#N)c3)ccc2C)cc1C1(F)COC1
Given I and II , report the one with the higher recorded IC50. // caller expects the label of the chosen entry
I

a. CCOc1nnc(-c2cc(NC(=O)c3cc(C(F)(F)F)ncn3)ccc2C)cc1C1CCOCC1
b. Cc1ccc(NC(=O)c2ccnc(C(C)(F)F)c2)cc1-c1cc(OCCO)nc(C2CCOCC2O)c1 (stereo not drawn)
c. Cc1ccc(NC(=O)c2ccnc(C(F)(F)F)c2)cc1-c1cc(C2CCOCC2)c(N[C@@H](C)CO)nn1
Rank the items in ascending order with respect to IC50. Answer format: list of labels, ordered as asked.
c, a, b

1. Cc1ccc(NC(=O)c2ccnc(C(F)(F)F)c2)cc1-c1cc(OCCO)nc(C2(CF)COC2)c1
2. CCOc1nnc(-c2cc(NC(=O)c3ccnc(C(F)(F)F)c3)ccc2C)cc1C1CCOCC1
3. CCOc1ncc(-c2cc(NC(=O)c3ccnc(C(C)(C)F)c3)cnc2C)cc1C1(F)CCOC1 (stereo not drawn)
4. COc1ncc(-c2cc(NC(=O)c3cc(C(F)(F)F)ccn3)cnc2C)cc1C1(F)COC1
5. Cc1ccc(NC(=O)c2cc(C(F)(F)F)ccn2)cc1-c1cc(OC[C@H](O)CO)nc(C2CCOCC2)c1
Order the records so the highest IC50 appears first and the lowest last. Answer format: list of labels, ordered as asked.
3, 1, 5, 2, 4
(3: 2 nM, 1: 0.149 nM, 5: 0.07 nM, 2: 0.04 nM, 4: 0.0136 nM)

P. COCCNc1nnc(-c2cc(NC(=O)c3ccnc(C(F)(F)F)c3)ccc2C)cc1C1CCOCC1
Q. CCOc1nnc(-c2cc(NC(=O)c3cc(CN(C)C)cc(C(F)(F)F)c3)cnc2C)cc1C1(C)COC1
Given P and Q , report the one with the higher recorded IC50. // caller expects the label of the chosen entry
Q
